Swelling for assorted substances
Test system: carrageenan-induced toe swelling in SD rats
Experiment: Carrageenan-induced acute toe swelling in rats
Format: in vivo, rat
Design: unit not given here
Conditions: 20 mg/kg once a day for 3 days; 5 h after carrageenan
Description: SD rats were divided into blank model group, dexamethasone-positive group (5 mg/kg) and mPEG-HM-1 test group. The drug was administered once a day, and the model group was given the same volume of normal saline for 3 days and fed normally. At the first hour after the last administration, 0.1 mL of 1% carrageenan was injected subcutaneously into the right hind paw of the rats to induce inflammation. The volume of the foot was measured at 1 h, 3 h, 5 h, and 7 h after inflammation. […]
Where no end group is shown, it is not given here.
Note: the reply should be a number with no unit written.

Example results:
mPEG2-NHS10k-Arg-Gly-Ala-Asp-Arg-Ala-Gly-Gly-Gly-Gly-Arg-Gly-Asp ({mPEG2‑NHS 10 kDa}-RGADRAGGGGRGD) [mPEG2-NHS10k-HM-1] | 0.42
mPEG-SC10k-Arg-Gly-Ala-Asp-Arg-Ala-Gly-Gly-Gly-Gly-Arg-Gly-Asp ({mPEG‑SC 10 kDa}-RGADRAGGGGRGD) [mPEG-SC10k-HM-1] | 0.43

// next item, Swelling requested
Input line: What value of Swelling has been reported for the following substance? mPEG-SC5k-Arg-Gly-Ala-Asp-Arg-Ala-Gly-Gly-Gly-Gly-Arg-Gly-Asp ({mPEG‑SC 5 kDa}-RGADRAGGGGRGD) [mPEG-SC5k-HM-1]
Output line: 0.38

* * *

Assay: Half-life / pharmacokinetics of mPEG-HM-1 and HM-1
Details: in vivo
Where no end group is shown, it is not given here.
recorded_endpoint: MRT inf (min)
Could you give me the number in min? Just the number is fine.

Input line: I would be grateful if you could share the reported MRT inf for RGADRAGGGGRGD [HM-1] .
Output line: 4.02

* * *

Below, each of the substances is paired with its reported Joint swelling value.
System: adjuvant arthritis (AA) SD rats
Experiment: Adjuvant arthritis (AA) rat model
Format: in vivo
Conditions: 80 mg/kg subcutaneous once every three days; AA SD rats
Where no end group is shown, it is not given here.
Just the number in mm, nothing appended.

Below, 3 substances whose answers are already recorded.
mPEG-bALD40k-Arg-Gly-Ala-Asp-Arg-Ala-Gly-Gly-Gly-Gly-Arg-Gly-Asp ({mPEG‑bALD 40 kDa}-RGADRAGGGGRGD) [mPEG-bALD40k-HM-1] | 0.74
mPEG-SC40k-Arg-Gly-Ala-Asp-Arg-Ala-Gly-Gly-Gly-Gly-Arg-Gly-Asp ({mPEG‑SC 40 kDa}-RGADRAGGGGRGD) [mPEG-SC40k-HM-1] | 0.71
mPEG-ALD40k-Arg-Gly-Ala-Asp-Arg-Ala-Gly-Gly-Gly-Gly-Arg-Gly-Asp ({mPEG‑ALD 40 kDa}-RGADRAGGGGRGD) [mPEG-ALD40k-HM-1] | 0.73

Okay, next one:
Input line: What value of Joint swelling has been reported for the following substance? mPEG2-NHS40k-Arg-Gly-Ala-Asp-Arg-Ala-Gly-Gly-Gly-Gly-Arg-Gly-Asp ({mPEG2‑NHS 40 kDa}-RGADRAGGGGRGD) [mPEG2-NHS40k-HM-1]
Output line: 0.73

* * *

This listing pairs substances with measured Inhibition rate.
System: human retinal vascular endothelial cells (HRCEC)
Assay: MTT proliferation of human retinal vascular endothelial cells
Format: cell-based
Conditions: 80 μg/mL; HRCEC proliferation, 48 h
Where no end group is shown, it is not given here.
Give the value in %* but do not write %* after it.

// below: answered substances
mPEG-SC40k-Arg-Gly-Ala-Asp-Arg-Ala-Gly-Gly-Gly-Gly-Arg-Gly-Asp ({mPEG‑SC 40 kDa}-RGADRAGGGGRGD) [mPEG-SC40k-HM-1] | 42.27
mPEG2-NHS40k-Arg-Gly-Ala-Asp-Arg-Ala-Gly-Gly-Gly-Gly-Arg-Gly-Asp ({mPEG2‑NHS 40 kDa}-RGADRAGGGGRGD) [mPEG2-NHS40k-HM-1] | 42.52
mPEG2-NHS10k-Arg-Gly-Ala-Asp-Arg-Ala-Gly-Gly-Gly-Gly-Arg-Gly-Asp ({mPEG2‑NHS 10 kDa}-RGADRAGGGGRGD) [mPEG2-NHS10k-HM-1] | 65.13

Input line: Looking for the measured Inhibition rate of mPEG-ALD40k-Arg-Gly-Ala-Asp-Arg-Ala-Gly-Gly-Gly-Gly-Arg-Gly-Asp ({mPEG‑ALD 40 kDa}-RGADRAGGGGRGD) [mPEG-ALD40k-HM-1] , can you help?
Output line: 43.11

Input line: Same read-out for mPEG-SC10k-Arg-Gly-Ala-Asp-Arg-Ala-Gly-Gly-Gly-Gly-Arg-Gly-Asp ({mPEG‑SC 10 kDa}-RGADRAGGGGRGD) [mPEG-SC10k-HM-1] ?
Output line: 68.84

* * *

Tested on: choroidal neovascularization in BN rats
Assay: Laser-induced choroidal neovascularization in BN rats (FFA)
Assay type: in vivo, rat
Conditions: Day 28; 25 μg intravitreally once daily for 1 week (Table 53)
Where no end group is shown, it is not given here.
recorded_endpoint: CNV Incidence rate (%)
Dear colleague, please return just the value in %, with no unit written.

Guide cases for CNV Incidence rate, answers given:
mPEG2-NHS5k-Arg-Gly-Ala-Asp-Arg-Ala-Gly-Gly-Gly-Gly-Arg-Gly-Asp ({mPEG2‑NHS 5 kDa}-RGADRAGGGGRGD) [mPEG2-NHS5k-HM-1] | 48.53
mPEG-SC5k-Arg-Gly-Ala-Asp-Arg-Ala-Gly-Gly-Gly-Gly-Arg-Gly-Asp ({mPEG‑SC 5 kDa}-RGADRAGGGGRGD) [mPEG-SC5k-HM-1] | 47.76
mPEG-bALD5k-Arg-Gly-Ala-Asp-Arg-Ala-Gly-Gly-Gly-Gly-Arg-Gly-Asp ({mPEG‑bALD 5 kDa}-RGADRAGGGGRGD) [mPEG-bALD5k-HM-1] | 46.38

Shift focus to the following entry.
Input line: Please report the recorded CNV Incidence rate for mPEG-ALD5k-Arg-Gly-Ala-Asp-Arg-Ala-Gly-Gly-Gly-Gly-Arg-Gly-Asp ({mPEG‑ALD 5 kDa}-RGADRAGGGGRGD) [mPEG-ALD5k-HM-1] .
Output line: 46.48

* * *

Tested on: corneal neovascularization in BALB/c mice
Experiment: Alkali-burn corneal neovascularization in BALB/c mice (CD31 microvessel density)
Format: in vivo, mouse
Conditions: microvessel density (CD31) of cornea, day 14 after alkali burn; intravitreal once a day for 1 week
Marks after values point to notes of the source that are not given here. Where no end group is shown, it is not given here.
recorded_endpoint: MVD

Record excerpt, results attached:
mPEG-bALD20k-Arg-Gly-Ala-Asp-Arg-Ala-Gly-Gly-Gly-Gly-Arg-Gly-Asp ({mPEG‑bALD 20 kDa}-RGADRAGGGGRGD) [mPEG-bALD20k-HM-1] | 34.81 ± 6.817**
mPEG-bALD10k-Arg-Gly-Ala-Asp-Arg-Ala-Gly-Gly-Gly-Gly-Arg-Gly-Asp ({mPEG‑bALD 10 kDa}-RGADRAGGGGRGD) [mPEG-bALD10k-HM-1] | 32.01 ± 5.738**
mPEG-SC5k-Arg-Gly-Ala-Asp-Arg-Ala-Gly-Gly-Gly-Gly-Arg-Gly-Asp ({mPEG‑SC 5 kDa}-RGADRAGGGGRGD) [mPEG-SC5k-HM-1] | 39.69 ± 3.527*
mPEG-ALD40k-Arg-Gly-Ala-Asp-Arg-Ala-Gly-Gly-Gly-Gly-Arg-Gly-Asp ({mPEG‑ALD 40 kDa}-RGADRAGGGGRGD) [mPEG-ALD40k-HM-1] | 35.96 ± 6.862**
mPEG-bALD5k-Arg-Gly-Ala-Asp-Arg-Ala-Gly-Gly-Gly-Gly-Arg-Gly-Asp ({mPEG‑bALD 5 kDa}-RGADRAGGGGRGD) [mPEG-bALD5k-HM-1] | 37.97 ± 3.914*

Next, consider the following substance.
Input line: Quick one: MVD of mPEG-ALD20k-Arg-Gly-Ala-Asp-Arg-Ala-Gly-Gly-Gly-Gly-Arg-Gly-Asp ({mPEG‑ALD 20 kDa}-RGADRAGGGGRGD) [mPEG-ALD20k-HM-1] ?
Output line: 34.67 ± 6.953**

* * *

System: choroidal neovascularization in BN rats
Assay: Laser-induced choroidal neovascularization in BN rats (FFA)
Format: in vivo, rat
Details: Day 14; 100 μg intravitreally once daily for 1 week (Table 53)
Where no end group is shown, it is not given here.
Measured CNV Incidence rate accompanies every entry in the list below.
Return type: number; implicit unit %.

Some solved cases for reference:
mPEG-SC20k-Arg-Gly-Ala-Asp-Arg-Ala-Gly-Gly-Gly-Gly-Arg-Gly-Asp ({mPEG‑SC 20 kDa}-RGADRAGGGGRGD) [mPEG-SC20k-HM-1] | 45.93
mPEG-bALD20k-Arg-Gly-Ala-Asp-Arg-Ala-Gly-Gly-Gly-Gly-Arg-Gly-Asp ({mPEG‑bALD 20 kDa}-RGADRAGGGGRGD) [mPEG-bALD20k-HM-1] | 45.65
mPEG2-NHS20k-Arg-Gly-Ala-Asp-Arg-Ala-Gly-Gly-Gly-Gly-Arg-Gly-Asp ({mPEG2‑NHS 20 kDa}-RGADRAGGGGRGD) [mPEG2-NHS20k-HM-1] | 45.99

From here, focus on the item given below.
Input line: Form field: reported CNV Incidence rate of mPEG-ALD20k-Arg-Gly-Ala-Asp-Arg-Ala-Gly-Gly-Gly-Gly-Arg-Gly-Asp ({mPEG‑ALD 20 kDa}-RGADRAGGGGRGD) [mPEG-ALD20k-HM-1]
Output line: 45.45

Source listed as patent US10869931B2.
